Assay: clinical
Details: human, plasma, oral, 36 mg, AUC0–inf, Week 3; TIW 36 mg, n = 3; mean
observed property: AUC(0-inf) (ng·h/mL)
Number only, in ng·h/mL; omit the unit.

For C=CC(=O)N1CC[C@H](n2nc(C#Cc3cc(OC)cc(OC)c3)c3c(N)ncnc32)C1 the molecule record lists AUC(0-inf) as 2160

====

Assay: clinical
Details: human, plasma, oral, 20 mg, Cmax, Day 1; QD 20 mg, n = 7; mean (standard deviation)
observed property: Cmax (ng/mL)
Number only, in ng/mL; omit the unit.

For C=CC(=O)N1CC[C@H](n2nc(C#Cc3cc(OC)cc(OC)c3)c3c(N)ncnc32)C1 the compound record lists Cmax as 253

====

Assay: clinical
Details: human, plasma, oral, 8 mg, AUC0–inf, Week 3; TIW 8 mg, n = 1
observed property: AUC(0-inf) (ng·h/mL)
Number only, in ng·h/mL; omit the unit.

For C=CC(=O)N1CC[C@H](n2nc(C#Cc3cc(OC)cc(OC)c3)c3c(N)ncnc32)C1 the compound record lists AUC(0-inf) as 663

====

Test: clinical
Details: human, plasma, oral, 8 mg, Tmax, Day 1; TIW 8 mg, n = 1; median
observed property: Tmax
Answer as a quantity: numeral, then unit.

For C=CC(=O)N1CC[C@H](n2nc(C#Cc3cc(OC)cc(OC)c3)c3c(N)ncnc32)C1 the molecule record lists Tmax as 1.87 h

====

Assay: clinical
Conditions: human, plasma, oral, 16 mg, Cmax, Day 1; QD 16 mg, n = 3; mean (standard deviation)
observed property: Cmax (ng/mL)
Number only, in ng/mL; omit the unit.

For C=CC(=O)N1CC[C@H](n2nc(C#Cc3cc(OC)cc(OC)c3)c3c(N)ncnc32)C1 the compound record lists Cmax as 235

====

Assay: clinical
Conditions: human, plasma, oral, 16 mg, AUC0–inf, Day 1; QD 16 mg, n = 3; mean (standard deviation)
observed property: AUC(0-inf) (ng·h/mL)
Number only, in ng·h/mL; omit the unit.

For C=CC(=O)N1CC[C@H](n2nc(C#Cc3cc(OC)cc(OC)c3)c3c(N)ncnc32)C1 the compound record lists AUC(0-inf) as 1020

====

Assay: clinical
Settings: human, plasma, oral, 16 mg, AUC0–last, Week 3; TIW 16 mg, n = 1
observed property: AUC(0-t) (ng·h/mL)
Number only, in ng·h/mL; omit the unit.

For C=CC(=O)N1CC[C@H](n2nc(C#Cc3cc(OC)cc(OC)c3)c3c(N)ncnc32)C1 [futibatinib] the compound record lists AUC(0-t) as 1580

====

Experiment: clinical
Conditions: human, plasma, oral, 16 mg, Cmax, Day 1; TIW 16 mg, n = 1
observed property: Cmax
Answer as a quantity: numeral, then unit.

For C=CC(=O)N1CC[C@H](n2nc(C#Cc3cc(OC)cc(OC)c3)c3c(N)ncnc32)C1 the compound record lists Cmax as 189 ng/mL

====

Experiment: clinical
Conditions: human, plasma, oral, 24 mg, AUC0–last, Week 3; TIW 24 mg, n = 1
observed property: AUC(0-t)

For C=CC(=O)N1CC[C@H](n2nc(C#Cc3cc(OC)cc(OC)c3)c3c(N)ncnc32)C1 [futibatinib] the molecule record lists AUC(0-t) as 499 ng·h/mL

====

Assay: clinical
Settings: human, plasma, oral, 20 mg, AUC0–last, Week 3 (day 21); QD 20 mg, n = 2; mean
observed property: AUC(0-t) (ng·h/mL)
Number only, in ng·h/mL; omit the unit.

For C=CC(=O)N1CC[C@H](n2nc(C#Cc3cc(OC)cc(OC)c3)c3c(N)ncnc32)C1 the molecule record lists AUC(0-t) as 727

====

Experiment: clinical
Conditions: human, plasma, oral, 24 mg, Tmax, Week 3; TIW 24 mg, n = 1; median
observed property: Tmax (h)
Number only, in h; omit the unit.

For C=CC(=O)N1CC[C@H](n2nc(C#Cc3cc(OC)cc(OC)c3)c3c(N)ncnc32)C1 [futibatinib] the compound record lists Tmax as 3.98

====

Experiment: clinical
Details: human, plasma, oral, 36 mg, t1/2, Week 3; TIW 36 mg, n = 2; mean
observed property: half-life (h)
Number only, in h; omit the unit.

For C=CC(=O)N1CC[C@H](n2nc(C#Cc3cc(OC)cc(OC)c3)c3c(N)ncnc32)C1 the compound record lists half-life as 3.64

====

Test: clinical
Details: human, plasma, oral, 24 mg, AUC0–last, Day 1; TIW 24 mg, n = 1
observed property: AUC(0-t) (ng·h/mL)
Number only, in ng·h/mL; omit the unit.

For C=CC(=O)N1CC[C@H](n2nc(C#Cc3cc(OC)cc(OC)c3)c3c(N)ncnc32)C1 [futibatinib] the molecule record lists AUC(0-t) as 621

====

Experiment: clinical
Settings: human, plasma, oral, 16 mg, AUC0–last, Day 1; QD 16 mg, n = 3; mean (standard deviation)
observed property: AUC(0-t) (ng·h/mL)
Number only, in ng·h/mL; omit the unit.

For C=CC(=O)N1CC[C@H](n2nc(C#Cc3cc(OC)cc(OC)c3)c3c(N)ncnc32)C1 [futibatinib] the compound record lists AUC(0-t) as 1010

====

Test: clinical
Conditions: human, plasma, oral, 16 mg, Tmax, Day 1; TIW 16 mg, n = 1; median
observed property: Tmax (h)
Number only, in h; omit the unit.

For C=CC(=O)N1CC[C@H](n2nc(C#Cc3cc(OC)cc(OC)c3)c3c(N)ncnc32)C1 the molecule record lists Tmax as 1.95

====

Assay: clinical
Conditions: human, plasma, oral, 20 mg, t1/2, Day 1; QD 20 mg, n = 7; mean (standard deviation)
observed property: half-life (min)
Number only, in min; omit the unit.

For C=CC(=O)N1CC[C@H](n2nc(C#Cc3cc(OC)cc(OC)c3)c3c(N)ncnc32)C1 the compound record lists half-life as 131

====

Assay: clinical
Details: human, plasma, oral, 24 mg, t1/2, Day 1; TIW 24 mg, n = 1
observed property: half-life (h)
Number only, in h; omit the unit.

For C=CC(=O)N1CC[C@H](n2nc(C#Cc3cc(OC)cc(OC)c3)c3c(N)ncnc32)C1 the compound record lists half-life as 1.55

====

Assay: clinical
Settings: human, plasma, oral, 24 mg, Cmax, Week 3; TIW 24 mg, n = 1
observed property: Cmax
Answer as a quantity: numeral, then unit.

For C=CC(=O)N1CC[C@H](n2nc(C#Cc3cc(OC)cc(OC)c3)c3c(N)ncnc32)C1 the molecule record lists Cmax as 146 ng/mL
